Experiment: qHTS Assay for Lipid Storage Modulators (AID 1519); further: on the % scale 0 is the no-effect control and ±100 the full control effect
Conditions: Drosophila S3 cells, BODIPY lipid droplet/cell ratio, laser cytometry; at 57.5 µM (top of the series); cells loaded with oleic acid
Records with an inconclusive call do not appear.
quantity_kind: activity change, negative = inhibition (%)

{"compound": "OCc1cnc[nH]1", "quantitative_readout": 1.18}
{"compound": "NCC(CP(=O)(O)O)c1ccc(Cl)cc1 (stereo unspecified)", "quantitative_readout": -3.32}
{"compound": "CC(N)Cc1c[nH]c2ccc(O)cc12 (stereo unspecified)", "quantitative_readout": -0.0169}
{"compound": "CN1C2CCC1CC(OC(c1ccccc1)c1ccccc1N)C2 (stereo unspecified)", "quantitative_readout": 0.575}
{"compound": "O=C1C=CC(=O)C=C1", "quantitative_readout": 0.0539}
{"compound": "C[N+]1(C)CCN(c2ccccc2)CC1", "quantitative_readout": 1.07}
{"compound": "CC(C)CC(NP(=O)(O)O[C@@H]1O[C@@H](C)[C@H](O)[C@@H](O)[C@H]1O)C(=O)NC(Cc1c[nH]c2ccccc12)C(=O)O (stereo partly specified)", "quantitative_readout": 3.22}
{"compound": "CCCN1CC[C@@H]2c3cc(O)ccc3CC[C@@H]21", "quantitative_readout": 1.73}
{"compound": "C[N+](C)(C)CC#CCN1CCCC1=O", "quantitative_readout": 1.94}
{"compound": "O=C(O)c1cc[c]([Hg][Cl])cc1", "quantitative_readout": 1.37}
{"compound": "CN1CC[C@@]2(C)c3cc(O)ccc3N(C)C12 (stereo partly specified)", "quantitative_readout": 0.587}
